Origin of measurements: patent US9670219B2

molecular target: human α7 nACh receptor (Homo sapiens, UniProt P36544); construct: expressed in transfected cells; host or cells: HEK293 cells (ATCC CRL-1573), transient co-transfection by electroporation with rat RIC3 (NM_001115045.3); experiment: Evaluation for human α7 nACh receptor using FLIPR (intracellular calcium response, PAM activity); type: cell-based; conditions: maximum response of test drug with agonist PNU-282987, relative to maximum response of PNU-120596 = 100%
Sequence (P36544 23-502): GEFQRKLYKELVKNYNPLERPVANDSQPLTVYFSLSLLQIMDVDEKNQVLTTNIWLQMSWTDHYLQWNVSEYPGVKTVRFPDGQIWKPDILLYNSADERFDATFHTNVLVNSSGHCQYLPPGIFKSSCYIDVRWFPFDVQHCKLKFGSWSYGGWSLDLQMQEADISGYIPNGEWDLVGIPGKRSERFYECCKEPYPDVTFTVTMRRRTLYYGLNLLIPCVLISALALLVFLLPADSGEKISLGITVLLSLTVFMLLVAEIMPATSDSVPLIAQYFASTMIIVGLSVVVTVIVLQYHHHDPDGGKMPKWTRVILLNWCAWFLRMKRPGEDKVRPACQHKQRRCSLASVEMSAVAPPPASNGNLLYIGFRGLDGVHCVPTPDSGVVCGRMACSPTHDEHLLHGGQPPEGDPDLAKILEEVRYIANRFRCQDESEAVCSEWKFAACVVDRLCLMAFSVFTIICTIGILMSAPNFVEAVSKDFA
Counter-ions that a name gives are not always drawn.
Property: Max; scope: individual compounds
Provide only the numeric value, understood in %.

| compound | measured_quantity | unit_of_measure | value_measured |
| --- | --- | --- | --- |
| O=C(Nc1cccnn1)c1cc(N2CCC[C@H](C(F)(F)F)C2)nc2c1CCOCC2 [Ex 1, fumarate] | Max | % | 99.8 |

Please indicate recorded Max of C[C@@H]1CN(c2cc(C(=O)Nc3ccc(Cl)cn3)c3c(n2)CCOCC3)C[C@H](C)O1 [Ex 18, hydrochloride] measured with human α7 nACh receptor (Homo sapiens, UniProt P36544).
79.2

# return Max of C[C@@H]1CN(c2cc(C(=O)Nc3ccc(F)cn3)c3c(n2)CCOCC3)C[C@H](C)O1 [Ex 12] (system: human α7 nACh receptor (Homo sapiens, UniProt P36544))
96.9

Give measured Max for O=C(Nc1cccnn1)c1cc(N2CCC[C@@H](C(F)(F)F)C2)nc2c1CCOCC2 [Ex 7, fumarate] (human α7 nACh receptor (Homo sapiens, UniProt P36544)).
94.8

Specify Max for CC1(C)CN(c2cc(C(=O)Nc3cccnn3)c3c(n2)CCOCC3)CC(C)(C)O1 [Ex 9, hydrochloride] , system human α7 nACh receptor (Homo sapiens, UniProt P36544).
69.3

====

Quick list: EC20 per entry.
molecular target: human α7 nACh receptor (Homo sapiens); construct: expressed in transfected cells; host or cells: HEK293 cells (ATCC CRL-1573), transient co-transfection by electroporation with rat RIC3 (NM_001115045.3); assay: Evaluation for human α7 nACh receptor using FLIPR (intracellular calcium response, PAM activity); type: cell-based; settings: test drug concentration giving 20% response; maximum response of PNU-120596 with agonist PNU-282987 (0.6 μM) = 100%; HEK293 cells co-expressing human α7 nACh receptor/rat RIC3
Counter-ions that a name gives are not always drawn.
# number then unit; no other words

Use the examples below as a reference point.
| molecule | target_desc | EC20 |
| --- | --- | --- |
| CC1(C)CN(c2cc(C(=O)Nc3cccnn3)c3c(n2)CCOCC3)CC(C)(C)O1 [Ex 9, hydrochloride] | human α7 nACh receptor (Homo sapiens) | 3520 nM |
| O=C(Nc1cccnn1)c1cc(N2CCC[C@@H](C(F)(F)F)C2)nc2c1CCOCC2 [Ex 7, fumarate] | human α7 nACh receptor (Homo sapiens) | 512 nM |
| C[C@@H]1CN(c2cc(C(=O)Nc3ccc(Cl)cn3)c3c(n2)CCOCC3)C[C@H](C)O1 [Ex 18, hydrochloride] | human α7 nACh receptor (Homo sapiens) | 1020 nM |

Identify EC20 associated with the molecule `C[C@@H]1CN(c2cc(C(=O)Nc3ccc(F)cn3)c3c(n2)CCOCC3)C[C@H](C)O1`
4350 nM

Indicate the recorded EC20 value for this molecule: O=C(Nc1cccnn1)c1cc(N2CCC[C@H](C(F)(F)F)C2)nc2c1CCOCC2 [Ex 1, fumarate]
2720 nM
